biological target: human PSMA on tumor cells (LNCaP, MDA-PCA-2B, VCAP, 22Rv1) (human, UniProt Q04609 1-750); assay: cell-based or functional assay
Sequence (Q04609 whole entry, the tested form may be a part): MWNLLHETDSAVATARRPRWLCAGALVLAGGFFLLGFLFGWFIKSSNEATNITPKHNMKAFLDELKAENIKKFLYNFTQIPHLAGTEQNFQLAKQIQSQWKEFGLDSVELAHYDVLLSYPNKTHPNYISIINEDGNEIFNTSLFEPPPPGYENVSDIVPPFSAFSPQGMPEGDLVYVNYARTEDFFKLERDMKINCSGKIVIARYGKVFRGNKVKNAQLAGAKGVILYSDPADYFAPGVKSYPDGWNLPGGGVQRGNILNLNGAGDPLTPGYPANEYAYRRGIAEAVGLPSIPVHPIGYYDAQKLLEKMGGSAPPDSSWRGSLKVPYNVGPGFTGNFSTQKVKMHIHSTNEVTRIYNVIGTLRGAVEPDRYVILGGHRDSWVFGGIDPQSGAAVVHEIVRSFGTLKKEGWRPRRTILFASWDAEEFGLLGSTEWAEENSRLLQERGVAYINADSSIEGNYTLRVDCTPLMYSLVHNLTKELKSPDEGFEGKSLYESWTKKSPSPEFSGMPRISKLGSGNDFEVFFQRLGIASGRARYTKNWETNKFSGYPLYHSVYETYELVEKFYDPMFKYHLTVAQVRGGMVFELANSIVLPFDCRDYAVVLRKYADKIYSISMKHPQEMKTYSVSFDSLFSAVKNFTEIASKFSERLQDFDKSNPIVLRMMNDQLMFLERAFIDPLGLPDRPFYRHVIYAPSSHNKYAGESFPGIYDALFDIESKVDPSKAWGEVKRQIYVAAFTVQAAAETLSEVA
Please note: LNCaP IC50 (nM), cytotoxicity of the FN3 domain-vcMMAF conjugate (CellTiter-Glo) exactly at 5 nM is 0. Only values below 5 nM get 1.

Consider the worked cases shown below.
QUERY: Is the reported LNCaP IC50 (nM), cytotoxicity of the FN3 domain-vcMMAF conjugate (CellTiter-Glo) for P233FR9P1001_D9 (designed binder, not shown: C-terminal poly-histidine tag) LPAPKNLVVSRVTEDSARLSWTAPDAAFDSFPIGYWEWDDDGEAIVLTVPGSERSYDLTGLKPGTEYWVYIAGVKGGQWSFPLSAIFTT strictly below 5 nM?
RESULT: 1

QUERY: Field: below-cutoff. Rule: recorded LNCaP IC50 (nM), cytotoxicity of the FN3 domain-vcMMAF conjugate (CellTiter-Glo) strictly less than 5 nM. Subject: P258AR6P1071_G03 (designed binder, not shown: C-terminal poly-histidine tag) LPAPKNLVVSRVTEDSARLSWDIDEQRDWFDSFLIQYQESEKVGEAIVLTVPGSERSYDLTGLKPGTEYTVSIYGVYHVYRSNPLSAIFTT
RESULT: 0

---
QUERY: Identify whether the binder P233FR9P1001_H3-1 (designed binder, not shown: C-terminal poly-histidine tag) LPAPKNLVVSRVTEDSARLSWTAPDAAFDSFPIGYWEWDDDGEAIVLTVPGSERSYDLTGLKPGTEYHVYIAGVKGGQWSFPLSAIFTT records LNCaP IC50 (nM), cytotoxicity of the FN3 domain-vcMMAF conjugate (CellTiter-Glo) below 5 nM.
RESULT: 1

QUERY: In the record for P258AR6P1071_D02 (designed binder, not shown: C-terminal poly-histidine tag) LPAPKNLVVSRVTEDSARLSWAIDEQRDWFESFLIQYQESEKVGEAIVLTVPGSERSYDLTGLKPGTEYTVSIYGVYHVYRSNPLSAIFTT , is LNCaP IC50 (nM), cytotoxicity of the FN3 domain-vcMMAF conjugate (CellTiter-Glo) less than 5 nM?
RESULT: 1

This collection of values is drawn from patent US20160347840A1.
